studySystem: Thermotoga maritima mPPase (TmPPase) (Thermotoga maritima, UniProt Q9S5X0)
Sequence (Q9S5X0 whole entry): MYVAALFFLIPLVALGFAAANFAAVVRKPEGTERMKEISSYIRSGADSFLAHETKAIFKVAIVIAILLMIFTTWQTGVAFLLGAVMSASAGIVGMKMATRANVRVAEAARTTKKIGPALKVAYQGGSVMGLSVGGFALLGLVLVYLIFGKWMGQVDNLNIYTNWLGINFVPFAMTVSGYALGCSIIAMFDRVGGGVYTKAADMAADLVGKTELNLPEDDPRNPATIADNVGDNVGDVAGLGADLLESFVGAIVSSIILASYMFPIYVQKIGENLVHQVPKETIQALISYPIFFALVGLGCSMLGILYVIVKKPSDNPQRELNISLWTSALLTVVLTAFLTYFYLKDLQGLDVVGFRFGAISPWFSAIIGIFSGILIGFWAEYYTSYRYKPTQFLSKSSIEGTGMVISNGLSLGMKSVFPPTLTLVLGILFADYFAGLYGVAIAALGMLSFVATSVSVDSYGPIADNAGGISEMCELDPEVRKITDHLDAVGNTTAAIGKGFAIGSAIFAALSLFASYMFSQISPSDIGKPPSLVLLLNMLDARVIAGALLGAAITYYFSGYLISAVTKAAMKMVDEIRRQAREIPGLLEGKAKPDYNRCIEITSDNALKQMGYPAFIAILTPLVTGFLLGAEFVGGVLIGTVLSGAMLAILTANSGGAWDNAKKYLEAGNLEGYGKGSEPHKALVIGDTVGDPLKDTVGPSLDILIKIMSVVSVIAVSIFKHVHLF
protocolDescription: TmPPase inhibition assay (96-well plate, orthophosphate determination)
Assay type: biochemical
recordedConditions: computed using the pIC50 and the Heavy Atom Count (LEHA) normalization method, Discovery Studio
measuredEndpoint: LE (ligand efficiency)
Please give only the number in your answer, with no unit.

Worked examples follow.
Cc1cc(C)cc(-c2cc(C(=O)Oc3ccccc3Br)no2)c1 [Compound 12k] :: 0.22
Cc1nc(-c2cc(C(=O)O)no2)cs1 :: 0.34
O=C(Oc1ccccc1Br)c1cnc(-c2ccccc2)s1 :: 0.20

Reported LE (ligand efficiency), compound Cc1cccc(-c2cc(C(=O)Oc3ccccc3Br)no2)c1 [Compound 12i] : ____ 0.23

Next record, please: CC(C)(C)c1cc(C(=O)Nc2ccc(S(N)(=O)=O)cc2)cc(C(C)(C)C)c1 0.16

How about this compound: O=c1[nH]c2ccc(S(=O)(=O)CCO)cc2o1 0.27

Next: CC(C)(C)c1cc(-c2cc(C(=O)Oc3ccccc3Br)no2)cc(C(C)(C)C)c1 [Compound 12l] 0.17

Try this compound too: CC(C)(C)c1cc(C(=O)Nc2nccs2)cc(C(C)(C)C)c1 0.20

Try CC(C)(C)c1cc(C(=O)Nc2ccccc2Br)cc(C(C)(C)C)c1 next. 0.18

Next record, please: Cc1cc(C)cc(-c2cc(C(=O)Oc3ccccc3)no2)c1 0.20

###

studySystem: Thermotoga maritima mPPase (TmPPase) (Thermotoga maritima, UniProt Q9S5X0)
protocolDescription: TmPPase inhibition assay (96-well plate, orthophosphate determination)
Format: biochemical
recordedConditions: TmPPase
measuredEndpoint: biological activity (in words)

O=C(O)c1cc(-c2ccccc2)on1 [Compound 11a] :: inactive
Cc1cc(C)cc(-c2cc(C(=O)Nc3ccccc3Br)no2)c1 :: inactive

###

studySystem: Thermotoga maritima mPPase (TmPPase) (Thermotoga maritima)
protocolDescription: TmPPase inhibition assay (96-well plate, orthophosphate determination)
Assay type: biochemical
recordedConditions: IC50 [CI95%], purified TmPPase; 95% confidence interval in square brackets
pIC50 for assorted compounds
Keep in mind that pIC50 stands for -log10 of concentration in molar terms.

O=C(Oc1ccccc1Br)c1cc(-c2ccc([N+](=O)[O-])cc2)on1 [Compound 12h] :: 4.70
CCOC(=O)c1cc(-c2ccc(OC)c(S(=O)(=O)Nc3cc(C)on3)c2)on1 :: 3.62
CCOC(=O)c1cc(-c2ccc(OC)c(S(=O)(=O)Nc3ccc(F)cc3Cl)c2)on1 :: 3.74

Turning to the following compound.
Reported pIC50, compound CCOC(=O)c1cc(-c2ccc(OC)c(S(=O)(=O)Nc3ccc(Cl)cc3)c2)on1 : ____ 3.55

###

studySystem: Thermotoga maritima mPPase (TmPPase) (Thermotoga maritima, UniProt Q9S5X0)
protocolDescription: TmPPase inhibition assay (96-well plate, orthophosphate determination)
Type: biochemical
recordedConditions: IC50 [CI95%] (µM), purified TmPPase; unrounded values of the molecular formula strings file
Measured IC50, listed per entry.

Here's what some known entries look like.
CCOC(=O)c1cc(-c2ccc(OC)c(S(=O)(=O)Nc3ccc(Cl)cc3F)c2)on1 [SI-32] :: 122 µM
CCOC(=O)c1cc(-c2ccc(OC)c(S(=O)(=O)NC3CCCc4ccccc43)c2)on1 (stereo not shown) [SI-19] :: 29.1 µM
CC(C)(C)c1cc(C(=O)OCCN2CCOCC2)cc(C(C)(C)C)c1 [SI-49] :: 340 µM

Quick check: IC50 on Thermotoga maritima mPPase (TmPPase) (Thermotoga maritima, UniProt Q9S5X0), item CCOC(=O)c1cc(-c2ccc(OC)c(S(=O)(=O)Nc3ccc(Cl)cc3)c2)on1 [SI-33] ? 280 µM

CCOC(=O)c1cc(-c2ccc(OC)c(S(=O)(=O)Nc3cc(C)on3)c2)on1 [SI-17] , same question. 240 µM

For CCOC(=O)c1cc(-c2cccc(C(C)(C)C)c2)on1 [Compound 10j] then? 1210 µM

###

studySystem: Thermotoga maritima mPPase (TmPPase) (Thermotoga maritima, UniProt Q9S5X0)
protocolDescription: TmPPase inhibition assay (96-well plate, orthophosphate determination)
Type: biochemical
recordedConditions: IC50 [CI95%], purified TmPPase; 95% confidence interval in square brackets
Threshold-based label: IC50 under 60 µM gives Yes, IC50 not under 60 µM gives No.

CCOC(=O)c1cc(-c2ccc(OC)c(S(=O)(=O)NC3CCCc4ccccc43)c2)on1 (centres unmarked) :: Yes

Hello, I'm reviewing records and need to know if IC50 of CC(C)(C)c1cc(C(=O)OCCN2CCOCC2)cc(C(C)(C)C)c1 is below 60 µM. Could you check? No

Now the compound CCOC(=O)c1cc(-c2ccc(OC)c(S(=O)(=O)Nc3ccc(F)c(Cl)c3)c2)on1 Yes

Let us now turn to CCOC(=O)c1cc(-c2ccc(OC)c(S(=O)(=O)Nc3ccc(Cl)cc3F)c2)on1 No

Follow-up entry: Cc1ccc(-c2cc(C(=O)Oc3ccccc3Br)no2)cc1C Yes

###

# LE (ligand efficiency) values compiled below
studySystem: Thermotoga maritima mPPase (TmPPase) (Thermotoga maritima)
protocolDescription: TmPPase inhibition assay (96-well plate, orthophosphate determination)
Format: biochemical
recordedConditions: computed using the pIC50 and the Heavy Atom Count (LEHA) normalization method, Discovery Studio
Lab note: record the figure alone, no unit after it.

Consider the reported LE (ligand efficiency) for these compounds:
CC(C)(C)c1cccc(-c2cc(C(=O)Oc3ccccc3Br)no2)c1 [Compound 12j] :: 0.20
O=C(Oc1ccccc1Br)c1cc(-c2ccc([N+](=O)[O-])cc2)on1 [Compound 12h] :: 0.19
Cc1ccc(-c2cc(C(=O)Oc3ccccc3Br)no2)cc1C [SI-54] :: 0.20
CCOC(=O)c1cc(-c2ccc(OC)c(S(=O)(=O)NC3CCCc4ccccc43)c2)on1 (centres unmarked) [SI-19] :: 0.14

Please look at the following compound next.
Quick one: LE (ligand efficiency) of O=C(O)c1cnc(-c2ccccc2)s1 [Compound 23] ? 0.32

###

studySystem: Thermotoga maritima mPPase (TmPPase) (Thermotoga maritima)
protocolDescription: TmPPase inhibition assay (96-well plate, orthophosphate determination)
Assay type: biochemical
recordedConditions: IC50 [CI95%] (µM), purified TmPPase; unrounded values of the molecular formula strings file
Here the recorded IC50 is given for each entry.
Respond numerically; units are µM and should not be typed.

Illustrative cases are given below, each with its answer.
CCOC(=O)c1cc(-c2ccc(OC)c(S(=O)(=O)Nc3ccc(F)c(Cl)c3)c2)on1 :: 58
O=C(Oc1ccccc1Br)c1cc(-c2ccc([N+](=O)[O-])cc2)on1 [Compound 12h] :: 19.6
Cc1ccc(-c2cc(C(=O)Oc3ccccc3Br)no2)cc1C :: 17.4

Next compound, please.
Look up IC50: CCOC(=O)c1cc(-c2ccc(OC)c(S(=O)(=O)Nc3ccc(F)cc3Cl)c2)on1 180

The reported numbers originate from paper PMC7153278.
